- Tested on: HUVEC cells
- assay.remarks: Cell adhesion assay with integrin blocking antibodies
- Assay type: cell-based, human
- measurement.context: label = plate coating; 10 μg/ml antibody
readout.name: inhibition of HUVEC attachment to coated plates by αvβ3 antibody (%)
// note: answer is a bare numeric in %

Need inhibition of HUVEC attachment to coated plates by αvβ3 antibody of Tumstatin-44-131: residues 44 to 131 of full-length Tumstatin (SEQ ID NO:33) (protein, Tumstatin-45-132 (amino acids 45-132 of SEQ ID NO10)) FSFLFVQGNQRAHGQDLGTLGSCLQRFTTMPFLFCNVNDVCNFASRNDYSYWLSTPALMPMNMAPITGRALEPYISRCTVCEGPAIAI , thanks.
47.1
